target: CIB1 and αIIb interaction (CIB1-GST : F-αIIb peptide) (Homo sapiens, UniProt Q99828); construct: made in house; host or cells: BL-21 plus RIL cells (E. coli); assay: FP assay, 1536-well qHTS format (primary and confirmatory screen); type: binding; conditions: Table S3, confirmatory screen; negative = inhibition
Entries annotated with measured Efficacy (%) (confirmatory screen)

Compound | Efficacy (%) (confirmatory screen)
Cn1cc(-c2[nH]c3cc(NC(=O)[C@H](N)C4CCCCC4)cc4c3c2C=NNC4=O)cn1 [NCGC00263132-02] | -85%
COC(=O)c1scc2c(O)cc(C(F)(F)F)nc12 [NCGC00168006-01] | -58%
Cc1ccsc1C1N=C(Nc2nc3ccccc3o2)NC2=C1C(=O)CCC2.O=C(O)C(F)(F)F (stereo not drawn) [NCGC00189283-01] | -22%
NS(=O)(=O)c1ccc(Cc2cn(-c3nc(C(=O)O)cs3)nc2-c2ccc(F)c(F)c2)cc1.O=C(O)C(F)(F)F [NCGC00356753-01] | -27%
Cc1ccc(S(=O)(=O)Nc2cc3c(cc2C(=O)Nc2nc(-c4ccccc4)cs2)OCO3)cc1.O=C(O)C(F)(F)F [NCGC00263702-01] | -44%
CNc1nc2c(s1)C(c1c(F)cccc1Cl)CC(=O)N2.O=C(O)C(F)(F)F (stereo not drawn) [NCGC00488265-02] | -12%
O=C(N/N=C1\C(=O)N(CCc2ccccc2)c2ccccc21)c1cccnc1 [NCGC00420788-01] | -58%
CNc1oc(-c2c[nH]c3ccccc23)nc1C#N.O=C(O)C(F)(F)F [NCGC00262511-01] | -55%
COc1ccccc1Nc1cc2ccccc2c(O)n1 [NCGC00183215-01] | -92%
OC[C@H]1O[C@@H](Oc2ccc(O)c3cccc(O)c23)[C@H](O)[C@@H](O)[C@@H]1O [NCGC00385147-01] | -85%
NC(=O)C1CCN(c2ncc(Br)s2)CC1 [NCGC00184919-01] | -112%
O=C1OC(c2ccc(O)c(S(=O)(=O)[O-])c2)(c2ccc(O)c(S(=O)(=O)[O-])c2)c2c(Br)c(Br)c(Br)c(Br)c21.[Na+].[Na+] [NCGC00159391-03] | -20%
O=C(NC1=CC(=O)[C@H]2O[C@H]2C1=O)c1ccccc1O [NCGC00168093-01] | -49%
O=C1c2ccccc2C(=O)c2c1ccc(O)c2O [NCGC00095227-06] | -175%
Cc1c2c(=O)n(-c3ccccc3)[nH]c2cc(=O)n1-c1cccnc1.O=C(O)C(F)(F)F [NCGC00248472-01] | -23%
O=C(O)C(F)(F)F.O=C1Nc2ccccc2/C1=N/NC(=S)NCc1ccccc1 [NCGC00229543-01] | -33%
O=C1c2cccc(O)c2C(=O)c2c(O)cc(CO)cc21 [NCGC00163510-03] | -18%
CCC(C)Cn1c(O)cc2nn(-c3nc4ccccc4s3)c(=O)c-2c1C.O=C(O)C(F)(F)F (stereo not drawn) [NCGC00386995-01] | -40%
COc1ccc2[nH]c([S+]([O-])Cc3ncc(C)c(OC)c3C)nc2c1 (stereo not drawn) [NCGC00016925-10] | -58%
CCc1ccc(NC(=O)C(=O)NNC(=O)c2cccs2)cc1.O=C(O)C(F)(F)F [NCGC00244112-01] | 0%
COC(=O)c1cc(Cl)ccc1NS(=O)(=O)C(F)(F)F [NCGC00249937-01] | 12%

* * *

Biological target: CIB1 and αIIb interaction (GST-CIB1 : F-αIIb peptide) (Homo sapiens, UniProt Q99828)
Construct: made in house; host or cells: BL-21 plus RIL cells (E. coli)
Sequence (Q99828 1-191): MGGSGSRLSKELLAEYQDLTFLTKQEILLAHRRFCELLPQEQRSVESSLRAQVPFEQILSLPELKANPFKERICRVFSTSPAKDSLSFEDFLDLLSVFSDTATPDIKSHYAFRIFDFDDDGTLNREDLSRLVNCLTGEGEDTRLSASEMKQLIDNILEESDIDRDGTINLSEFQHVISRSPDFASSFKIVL
Experiment: FP assay, 384-well format (screen)
Format: binding
Parameters: concentration or dose not given beside the values
Conditions: F-αIIb peptide

Compound | Unit | 384-well SCREEN Efficacy (%)
COc1ccccc1C(=O)c1no[n+]([O-])c1C(=O)c1ccccc1OC.O=C(O)C(F)(F)F [NCGC00351170-01] | % | 57
Cc1ccc(S(=O)(=O)Nc2cnccc2C(=O)Nc2nc(-c3cccc(Cl)c3)cs2)cc1.O=C(O)C(F)(F)F [NCGC00318956-01] | % | 43
Cc1ccc(S(=O)(=O)Nc2cnccc2C(=O)Nc2nc(-c3nc4ccccc4s3)cs2)cc1.O=C(O)C(F)(F)F [NCGC00343736-01] | % | 44
CSC(Cc1ccc(Cl)cc1)C(=O)Nc1ccc(Cl)cc1C(=O)O.O=C(O)C(F)(F)F (stereo not drawn) [NCGC00189231-01] | % | 31
CN(C)[C@@H]1CCN(c2cccc(Nc3nn4c(=O)c5ccccc5nc4s3)c2)C1.Cl [NCGC00189223-01] | % | 48
S=C(SSC(=S)N1CCCCC1)N1CCCCC1 [NCGC00181776-02, dipentamethylenethiuram disulfide] | % | 80
CCc1oc2ccccc2c1C(=O)c1cc(Br)c(O)c(Br)c1 [NCGC00013895-08] | % | 39
Oc1ccc2ccccc2c1SSc1c(O)ccc2ccccc12 [NCGC00186047-02, IPA-3, reference compound] | % | 76
O=C(Nc1nc(-c2ccccc2)cs1)c1ccncc1NS(=O)(=O)c1ccc(Cl)cc1.O=C(O)C(F)(F)F [NCGC00344892-02] | % | 31

* * *

biological target: CIB1 and αIIb interaction (CIB1-GST : F-αIIb peptide) (Homo sapiens); construct: made in house; host or cells: BL-21 plus RIL cells (E. coli); assay: FP assay, 1536-well qHTS format (primary and confirmatory screen); assay type: binding; conditions: qHTS primary screen of LOPAC/NPACT libraries; read-out: IC50

Compound | IC50, µM
CCCCCN(CCCCC)C(=O)C(CCC(=O)O)NC(=O)c1ccc(Cl)c(Cl)c1 (stereo not drawn) | 44.7
CC(C)=CCc1ccc(Oc2c(O)cc(C)cc2CO)c(C(=O)O)c1O | 44.7
COC(=O)C1=C(C)NC(C)=C(C(=O)OC)C1c1ccccc1[N+](=O)[O-] | 11.2
CCCN1C[C@H](CSC)C[C@@H]2c3cccc4[nH]cc(c34)C[C@H]21 | 50.1
C[C@@]1(C2CCCC2)Cc2cc(OCC(=O)O)c(Cl)c(Cl)c2C1=O | 25.1
CCOC(=O)Nc1ccc(NCc2ccc(F)cc2)nc1N.O=C(O)/C=C\C(=O)O | 39.8
CN(C)c1ccc(NC(=O)NS(=O)(=O)c2ccc(Cl)cc2)cc1 | 50.1
C=CC(=O)Nc1cccc(Sc2nc(Nc3ccc(N4CCN(C)CC4)cc3)ncc2Cl)c1 | 20
CCn1cc(C(=O)O)c(=O)c2ccc(C)nc21 | 8.9
COC(=O)C1=C(C)NC(C)=C(C(=O)OCCN(C)Cc2ccccc2)C1c1cccc([N+](=O)[O-])c1.Cl (stereo not drawn) | 3.5
CCOC(=O)C1=C(C)NC(C)=C(C(=O)OC)C1c1cccc([N+](=O)[O-])c1 (stereo not drawn) | 63.1
Cc1c(O)cc2c(c1O)COC1(O)CCCOC21 (stereo not drawn) | 50.1
Clc1ccccc1C(c1ccccc1)(c1ccccc1)n1ccnc1 | 20
C=C1C(=O)O[C@@H]2C3=C(C)CCC[C@]3(C)CC[C@@]12O | 50.1
O=C(Nc1ncc([N+](=O)[O-])s1)c1ccccc1O | 44.7
O=c1onc2cnc3ccccc3n12 | 56.2
COc1cc(/C=C/c2ccccc2)c(C(=O)O)c(O)c1CC=C(C)C | 31.6
C=CC(=O)Nc1ccc(CN2C(=O)N(c3cc(OC)cc(OC)c3)Cc3cnc(Nc4ccc(N5CCN(C)CC5)cc4)nc32)cc1 | 56.2
NC(=O)c1cc[n+](CC2=C(C(=O)O)N3C(=O)[C@@H](NC(=O)[C@@H](c4ccccc4)S(=O)(=O)[O-])[C@H]3SC2)cc1 | 50.1
COc1cc(NS(C)(=O)=O)ccc1Nc1c2ccccc2nc2ccccc12.Cl | 56.2
CN(C)c1cc2c(Nc3ccc4c(cnn4Cc4ccccc4)c3)ncnc2cn1 | 56.2
Cc1ccc(O)c(N=Nc2ccccc2)n1 | 1.8
N#C/C(=C1\Nc2ccccc2S1)c1ccnc(NCCc2cccnc2)n1 | 5.6
CC1(C)CCC(CN2CCN(c3ccc(C(=O)NS(=O)(=O)c4ccc(NCC5CCOCC5)c([N+](=O)[O-])c4)c(Oc4cnc5[nH]ccc5c4)c3)CC2)=C(c2ccc(Cl)cc2)C1 | 39.8
